- measurement.target: T1, Human BCMA (human, UniProt Q02223 1-54, limits assumed)
- T1 construct: Soluble analyte in SPR; construct not described; also called huBCMA; B-cell maturation antigen
- T1 sequence (looked up): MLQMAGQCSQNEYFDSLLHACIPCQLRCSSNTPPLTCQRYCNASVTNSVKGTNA
- run.description: SPR, IgG immobilised, 25 C
Measured pKd, listed per entry for reference.
The read-out pKd is expressed as -log10 of concentration in moles per litre.

Check out these entries, answers already filled in.
>  <binder>
L1.LGF/L3.NY/P6E01 (antibody, V domains shown, IgG) VH: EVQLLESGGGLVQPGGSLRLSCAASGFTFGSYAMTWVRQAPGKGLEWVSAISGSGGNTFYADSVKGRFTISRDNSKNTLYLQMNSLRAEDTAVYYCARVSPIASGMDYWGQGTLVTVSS VL: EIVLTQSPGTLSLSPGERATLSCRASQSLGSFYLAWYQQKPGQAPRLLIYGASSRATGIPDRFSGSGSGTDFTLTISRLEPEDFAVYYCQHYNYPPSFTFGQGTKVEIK

>  <pKd>
8.48

$$$$
>  <binder>
L1.GDF/L3.NY/H3.AL (antibody, V domains shown, IgG) VH: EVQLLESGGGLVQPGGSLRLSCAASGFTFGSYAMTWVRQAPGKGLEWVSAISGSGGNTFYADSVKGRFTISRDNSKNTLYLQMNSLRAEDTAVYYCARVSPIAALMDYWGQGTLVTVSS VL: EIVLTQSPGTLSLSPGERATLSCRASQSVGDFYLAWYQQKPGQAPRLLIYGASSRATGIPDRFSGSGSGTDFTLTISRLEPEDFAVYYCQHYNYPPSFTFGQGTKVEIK

>  <pKd>
8.35

$$$$

# evaluate next
Query: pKd for L3.NY/P6E01 (antibody, V domains shown, IgG) VH: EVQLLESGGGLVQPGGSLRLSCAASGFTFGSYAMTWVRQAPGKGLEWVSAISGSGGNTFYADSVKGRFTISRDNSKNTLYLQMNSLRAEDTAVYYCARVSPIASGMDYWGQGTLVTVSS VL: EIVLTQSPGTLSLSPGERATLSCRASQSVSSSYLAWYQQKPGQAPRLLIYGASSRATGIPDRFSGSGSGTDFTLTISRLEPEDFAVYYCQHYNYPPSFTFGQGTKVEIK ?
Response: 9.36
